Where do the numbers come from? From ChEMBL document CHEMBL5335822.

Species: Homo sapiens
EXPERIMENT SUMMARY: Selectivity ratio of IC50 for inhibition of human Galectin-1 to IC50 for inhibition of human Galectin-3
QUANTITY: Ratio IC50

{"columns": ["CHEMICAL STRING", "RECORDED RESULT"],
 "data": [
  ["CO[C@@H]1[C@@H](n2cc(-c3ccc(Cl)c(F)c3F)nn2)[C@@H](O)[C@@H](CO)O[C@H]1c1nc(C)nn1-c1ccc2ncsc2c1", 247],
  ["Cc1nc([C@@H]2O[C@H](CO)[C@H](O)[C@H](n3cc(-c4ccc(Br)c(F)c4F)nn3)[C@H]2O)n(-c2ccc3ncsc3c2)n1", 361],
  ["CO[C@@H]1[C@@H](n2cc(-c3ccc(Br)c(F)c3F)nn2)[C@@H](O)[C@@H](CO)O[C@H]1c1nc(C)nn1-c1ccc2ncsc2c1", 271],
  ["Cc1nc([C@@H]2O[C@H](CO)[C@H](O)[C@H](n3cc(-c4ccc(Cl)c(F)c4F)nn3)[C@H]2O)n(-c2ccc3ncsc3c2)n1", 435]
]}
